Reference for the values: patent US7592188B2

- assay-remarks: Photophysical properties of dyes in various solvents (absorbance, emission, quantum yield)
- Format: physicochemical
- condition-summary: reactive forms, solvent BuOH
reported-endpoint: Φ (quantum yield of fluorescence)

[[record]]
input_smiles = "CN(C(=O)COCC(=O)ON1C(=O)CCC1=O)c1ccc2c(c1)C(C)(C)/C(=C/C=C/C=C1/C(=O)c3ccccc3S1(=O)=O)N2CCCS(=O)(=O)[O-].[Na+]"
reported_endpoint = "Φ (quantum yield of fluorescence)"
result = 0.19

[[record]]
input_smiles = "CC1(C)\\C(=C/C=C/C=C2/C(=O)c3ccccc3S2(=O)=O)N(CCCS(=O)(=O)[O-])c2ccc(NC(=O)CSCCO)cc21.[Na+]"
reported_endpoint = "Φ (quantum yield of fluorescence)"
result = 0.12

[[record]]
input_smiles = "CC1(C)/C(=C/C=C/C=C2/C(=O)c3ccccc3S2(=O)=O)N(CCCS(=O)(=O)[O-])c2ccc(NC(=O)CI)cc21.[Na+]"
reported_endpoint = "Φ (quantum yield of fluorescence)"
result = 0.06

[[record]]
input_smiles = "O=C(CI)Nc1ccc2c(c1)S/C(=C/C=C/C=C1/C(=O)c3ccccc3S1(=O)=O)N2CCCS(=O)(=O)[O-].[Na+]"
reported_endpoint = "Φ (quantum yield of fluorescence)"
result = 0.06


###

- assay-remarks: Photophysical properties of dyes in various solvents (absorbance, emission, quantum yield)
- Assay type: physicochemical
- condition-summary: reactive forms, solvent BuOH
Recorded Emission λmax for the following molecules
reported-endpoint: Emission λmax (nm)

[[record]]
input_smiles = "CC1(C)/C(=C/C=C/C=C2/C(=O)c3ccccc3S2(=O)=O)N(CCCS(=O)(=O)[O-])c2ccc(NC(=O)CI)cc21.[Na+]"
numeric_readout = 639

[[record]]
input_smiles = "CN(C(=O)COCC(=O)ON1C(=O)CCC1=O)c1ccc2c(c1)C(C)(C)/C(=C/C=C/C=C1/C(=O)c3ccccc3S1(=O)=O)N2CCCS(=O)(=O)[O-].[Na+]"
numeric_readout = 623

[[record]]
input_smiles = "CC1(C)\\C(=C/C=C/C=C2/C(=O)c3ccccc3S2(=O)=O)N(CCCS(=O)(=O)[O-])c2ccc(NC(=O)CSCCO)cc21.[Na+]"
numeric_readout = 628

[[record]]
input_smiles = "O=C(CI)Nc1ccc2c(c1)S/C(=C/C=C/C=C1/C(=O)c3ccccc3S1(=O)=O)N2CCCS(=O)(=O)[O-].[Na+]"
numeric_readout = 636


###

- assay-remarks: Photophysical properties of dyes in various solvents (absorbance, emission, quantum yield)
- Assay type: physicochemical
- condition-summary: solvent MeOH
Each entry below carries its recorded Emission λmax.
reported-endpoint: Emission λmax (nm)

[[record]]
compound = "CN1C(=O)C(=C/C=C/C=C2\\N(C)c3ccccc3C2(C)C)C(=O)N(C)C1=S [dye 3a]"
numeric_readout = 603

[[record]]
compound = "CN1\\C(=C/C=C/C=C2/C(=O)c3ccccc3S2(=O)=O)C(C)(C)c2ccccc21 [dye 4a]"
numeric_readout = 615

[[record]]
compound = "CCN1\\C(=C/C=C/C=C2/C(=O)c3ccccc3S2(=O)=O)Sc2ccccc21 [dye 2a]"
numeric_readout = 617

[[record]]
compound = "CCN1/C(=C\\C=C\\C=C2C(=O)N(C)C(=S)N(C)C2=O)Sc2ccccc21 [dye 1b]"
numeric_readout = 606


###

Parameter: Φ (quantum yield of fluorescence). Scope: all listed entries.
- assay-remarks: Photophysical properties of dyes in various solvents (absorbance, emission, quantum yield)
- Format: physicochemical
- condition-summary: solvent BuOH
reported-endpoint: Φ (quantum yield of fluorescence)

[[record]]
input_smiles = "CCN1\\C(=C/C=C/C=C2/C(=O)c3ccccc3S2(=O)=O)Sc2ccccc21"
reported_endpoint = "Φ (quantum yield of fluorescence)"
numeric_readout = 0.12

[[record]]
input_smiles = "CCN1/C(=C\\C=C\\C=C2C(=O)N(C)C(=S)N(C)C2=O)Sc2ccccc21"
reported_endpoint = "Φ (quantum yield of fluorescence)"
numeric_readout = 0.26

[[record]]
input_smiles = "CN1C(=O)C(=C/C=C/C=C2\\N(C)c3ccccc3C2(C)C)C(=O)N(C)C1=S"
reported_endpoint = "Φ (quantum yield of fluorescence)"
numeric_readout = 0.61

[[record]]
input_smiles = "CN1\\C(=C/C=C/C=C2/C(=O)c3ccccc3S2(=O)=O)C(C)(C)c2ccccc21"
reported_endpoint = "Φ (quantum yield of fluorescence)"
numeric_readout = 0.54

